Molecular target: PIKFYVE (Homo sapiens)
Assay: KINOMEscan Kinase Assay (PIKFYVE inhibitory activity)
Conditions: read-out: PIKfyve Activity (% inhibition)
Reported inhibition at 0.001 µM maps to class as: Low = under 20%, Medium = from 20% up to 40%, High = 40% and over

- Cc1cccc(-c2ccn(-c3cc(N4CCOCC4)c4sc(NC(=O)C5COC5)cc4n3)n2)c1: Medium
- Cc1cccc(-c2ccn(-c3cc(N4CCOCC4)c4sc(CN5CCOCC5)c(C)c4n3)n2)c1: Low
- Cc1cccc(-c2ccn(-c3cc(N4CCOCC4)c4sc(CO)c(C)c4n3)n2)c1: Medium
- Cc1cccc(-c2nc(-c3cc(N4CCOCC4)c4sc(CN5CCN(S(C)(=O)=O)CC5)cc4n3)cs2)c1: Medium
- Cc1cccc(-c2ccn(-c3nc(N4CCOCC4)c4nc(CO)n(C)c4n3)n2)c1: High
- Brc1ccn(-c2cc(N3CCOCC3)c3sc(CN4CCOCC4)cc3n2)n1: Low
- Cc1cccc(-c2ccn(-c3cc(N4CCOCC4)c4sc(NC(=O)C5CCCN(C)C5)cc4n3)n2)c1 (stereo not drawn): High
- Cc1cccc(-c2ccn(-c3cc(N4CCOCC4)c4nc(CN5CCN(S(=O)(=O)C6CC6)CC5)[nH]c4n3)n2)c1: High
- Cc1cccc(-c2ccn(-c3nc4[nH]c(C(=O)N5CCN(S(C)(=O)=O)CC5)nc4c(N4CCOCC4)c3F)n2)c1: Low
- Cc1cccc(-c2ccn(-c3cc(N4CCOCC4)c4nc(C(=O)N5CCN(S(C)(=O)=O)CC5)n(C)c4n3)n2)c1: High
- Cc1cccc(-c2ccn(-c3nc(N4CCOCC4)c4sc(C#CCN(C)C)cc4n3)n2)c1: Medium

###

Target: PIKFYVE (Homo sapiens)
Assay: KINOMEscan Kinase Assay (PIKFYVE inhibitory activity)
Details: read-out: PIKfyve Activity (% inhibition)
Metric name: inhibition at 0.003 µM (%)

* Cc1cccc(-c2ccn(-c3cc(N4CCOCC4)c4sc(CO)c(C)c4n3)n2)c1 | 14
* Cc1cccc(-c2ccn(-c3cc(N4CCOCC4)c4sc(CN5CCN(S(C)(=O)=O)CC5)c(C)c4n3)n2)c1 | 47
* Cc1cccc(-c2ccn(-c3nc(N4CCOCC4)c4nc(CN5CCC(N(C)C)C(F)C5)n(C)c4n3)n2)c1 (stereo not drawn) | 22
* Cc1cccc(-c2nc(-c3nc(N4CCOCC4)c4sc(CN5CCN(S(C)(=O)=O)CC5)cc4n3)co2)c1 | 0
* Cc1cccc(-c2ccn(-c3nc4[nH]c(C(=O)NC5CC5)nc4c(N4CCOCC4)c3F)n2)c1 | 0
* Cc1cccc(-c2ccn(-c3nc4[nH]c(C(=O)NC5COC5)nc4c(N4CCOCC4)c3F)n2)c1 | 0
* Cc1cccc(-c2ccn(-c3nc4[nH]c(C(=O)N5CCC(C(C)(C)O)CC5)nc4c(N4CCOCC4)c3F)n2)c1 | 9
* Cc1cccc(-c2nc(-c3cc(N4CCOCC4)c4sc(CN5CCN(S(C)(=O)=O)CC5)cc4n3)co2)c1 | 8
* Cc1cccc(-c2ccn(-c3nc4[nH]c(C(=O)N5CCC(N6CCC6)C(F)C5)nc4c(N4CCOCC4)c3F)n2)c1 (stereo not drawn) | 10

###

Biological target: PIKFYVE (Homo sapiens, UniProt Q9Y2I7)
Sequence (Q9Y2I7 whole entry): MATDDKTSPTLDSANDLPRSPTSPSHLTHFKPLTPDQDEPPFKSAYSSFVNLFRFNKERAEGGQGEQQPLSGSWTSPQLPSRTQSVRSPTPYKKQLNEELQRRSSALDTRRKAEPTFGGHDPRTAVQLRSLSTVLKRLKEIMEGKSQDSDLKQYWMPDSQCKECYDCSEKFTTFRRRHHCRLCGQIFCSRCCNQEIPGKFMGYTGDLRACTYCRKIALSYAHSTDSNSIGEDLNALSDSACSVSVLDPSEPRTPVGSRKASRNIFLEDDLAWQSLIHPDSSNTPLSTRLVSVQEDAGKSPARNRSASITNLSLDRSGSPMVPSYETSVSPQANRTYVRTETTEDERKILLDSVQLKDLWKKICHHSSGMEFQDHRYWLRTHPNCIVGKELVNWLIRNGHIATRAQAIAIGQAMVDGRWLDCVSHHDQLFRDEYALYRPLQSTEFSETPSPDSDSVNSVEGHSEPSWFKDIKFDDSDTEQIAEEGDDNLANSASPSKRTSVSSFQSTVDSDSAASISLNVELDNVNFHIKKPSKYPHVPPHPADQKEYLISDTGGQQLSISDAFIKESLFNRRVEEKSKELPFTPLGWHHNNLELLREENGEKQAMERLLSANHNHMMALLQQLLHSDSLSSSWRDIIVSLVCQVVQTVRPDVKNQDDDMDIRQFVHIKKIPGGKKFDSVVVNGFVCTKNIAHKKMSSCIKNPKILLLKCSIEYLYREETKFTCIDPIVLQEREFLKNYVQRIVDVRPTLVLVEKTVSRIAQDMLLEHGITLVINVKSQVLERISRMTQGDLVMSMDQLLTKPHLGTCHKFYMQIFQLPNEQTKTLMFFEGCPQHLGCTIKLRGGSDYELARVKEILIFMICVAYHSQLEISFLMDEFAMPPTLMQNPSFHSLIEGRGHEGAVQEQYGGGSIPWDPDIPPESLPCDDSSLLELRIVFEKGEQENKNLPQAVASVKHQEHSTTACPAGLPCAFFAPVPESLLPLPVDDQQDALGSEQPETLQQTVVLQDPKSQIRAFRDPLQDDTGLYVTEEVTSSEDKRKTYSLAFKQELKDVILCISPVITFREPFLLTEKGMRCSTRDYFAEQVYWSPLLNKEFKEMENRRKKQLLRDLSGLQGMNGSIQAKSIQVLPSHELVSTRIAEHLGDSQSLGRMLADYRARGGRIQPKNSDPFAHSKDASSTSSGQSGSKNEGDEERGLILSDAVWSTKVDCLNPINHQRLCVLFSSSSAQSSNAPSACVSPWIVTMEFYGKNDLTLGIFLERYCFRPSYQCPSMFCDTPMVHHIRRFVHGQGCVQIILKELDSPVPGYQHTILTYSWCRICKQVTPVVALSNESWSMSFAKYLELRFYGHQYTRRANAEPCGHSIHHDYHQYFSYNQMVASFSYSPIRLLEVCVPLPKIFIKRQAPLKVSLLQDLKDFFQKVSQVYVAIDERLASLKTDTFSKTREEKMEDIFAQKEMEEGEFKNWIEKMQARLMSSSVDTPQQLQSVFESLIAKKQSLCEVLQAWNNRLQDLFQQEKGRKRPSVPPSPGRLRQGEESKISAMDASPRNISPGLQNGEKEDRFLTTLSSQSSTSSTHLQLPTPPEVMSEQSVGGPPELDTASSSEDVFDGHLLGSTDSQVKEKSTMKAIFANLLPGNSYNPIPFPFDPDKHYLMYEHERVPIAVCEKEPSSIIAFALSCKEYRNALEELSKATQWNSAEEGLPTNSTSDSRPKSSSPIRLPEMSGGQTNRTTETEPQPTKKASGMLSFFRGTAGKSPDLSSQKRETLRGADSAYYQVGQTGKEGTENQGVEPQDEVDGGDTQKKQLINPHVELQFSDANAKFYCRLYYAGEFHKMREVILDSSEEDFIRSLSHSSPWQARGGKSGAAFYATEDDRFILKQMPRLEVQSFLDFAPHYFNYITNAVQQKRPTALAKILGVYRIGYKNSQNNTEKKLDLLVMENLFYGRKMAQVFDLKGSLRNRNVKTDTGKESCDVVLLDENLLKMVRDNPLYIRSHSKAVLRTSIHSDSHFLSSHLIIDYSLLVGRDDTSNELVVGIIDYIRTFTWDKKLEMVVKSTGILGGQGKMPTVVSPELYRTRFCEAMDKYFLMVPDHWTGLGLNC
Assay: KINOMEscan Kinase Assay (PIKFYVE inhibitory activity)
pIC50: −log10 of the molar value.
Metric name: pIC50

- Cc1cccc(-c2ccn(-c3nc(N4CCOCC4)c4nc(CN5CCN(C(C)C)CC5)[nH]c4n3)n2)c1: 8.00 to 9.00

###

Target: PIKFYVE (Homo sapiens, UniProt Q9Y2I7)
Assay: KINOMEscan Kinase Assay (PIKFYVE inhibitory activity)
Settings: read-out: PIKfyve Activity (% inhibition)
Each item that follows carries a reported inhibition at 0.001 µM.
Metric name: inhibition at 0.001 µM (%)

- Cc1cccc(-c2ccn(-c3nc(N4CCOCC4)c4nc(C(=O)NC5COC5)[nH]c4n3)n2)c1: 40
- Cc1cccc(-c2ccn(-c3nc(N4CCOCC4)c4nc(CO)[nH]c4n3)n2)c1: 40
- Cc1cccc(-c2ccn(-c3cc(N4CCOCC4)c4nc(C(=O)N5CCN(S(C)(=O)=O)CC5)[nH]c4n3)n2)c1: 20
- Cc1cccc(-c2ccn(-c3nc(N4CCOCC4)c4nc(CN5CCN(S(C)(=N)=O)CC5)[nH]c4n3)n2)c1 (stereo not shown): 41
